Property: Percent Control; scope: individual compounds
# Tested on: RIOK2
# stated.conditions: Compound Concentration (nM):1000;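 also: KINOMEscan scanMAX binding as percent activity remaining versus control; lower means stronger binding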
reported.property: Percent Control (%)

INSERT INTO measurements (compound, reported_property, assay_result) VALUES
  ('COc1cc(/C=N/Nc2ncnc3[nH]ncc23)ccc1O [GW578748X]', 'Percent Control', 8.9),
  ('COc1cc2ncnc(Nc3ccc4c(cnn4Cc4ccccc4)c3)c2cc1OC.Cl [GW282449A]', 'Percent Control', 88),
  ('COc1cc2ncn(-c3cc(O[C@H](C)c4ccccc4Cl)c(C(N)=O)s3)c2cc1OC [GSK237701A]', 'Percent Control', 100);

* * *

# Test system: HPK1
# Construct: gene MAP4K1
# stated.conditions: Compound Concentration (nM):1000
Binarize Percent Control at 90%; below is 1 (yes), at or above is 0 (no).

INSERT INTO assay_data (molecule, class_assignment) VALUES
  ('COc1cc(N2CCN(C(C)C)CC2)ccc1Nc1nc(Nc2ccc(F)cc2C(=O)NC[C@@H](O)CO)c2cc[nH]c2n1 [GSK1392956A]', '1 (yes)'),
  ('C/C(Nc1ccc(S(N)(=O)=O)cc1)=C1/C(=O)Nc2ccccc21 [GW335962X]', '0 (no)'),
  ('COc1cccc(-c2c[nH]c3c(N/N=C/c4ccncc4)ncnc23)c1 [GW814408X]', '1 (yes)'),
  ('Cl.O=C(O[C@H]1CN[C@H](C#Cc2cc3ncnc(Nc4ccc5c(cnn5Cc5ccccc5)c4)c3s2)C1)N1CCOCC1 [GSK200398A]', '0 (no)'),
  ('CC(C)COC(=O)c1ccc2c(c1)/C(=C/Nc1ccc(S(N)(=O)=O)cc1)C(=O)N2 [GW416981X]', '1 (yes)'),
  ('COc1cc(/C=N/Nc2ncnc3[nH]ncc23)ccc1O [GW578748X]', '1 (yes)');

* * *

Property: Percent Control; scope: individual compounds
# Tested on: STK33
# stated.conditions: Compound Concentration (nM):1000
reported.property: Percent Control

INSERT INTO assay_data (compound, reported_property, assay_result) VALUES
  ('COc1cccc(-c2c[nH]c3c(N/N=C/c4ccncc4)ncnc23)c1 [GW814408X]', 'Percent Control', '84%'),
  ('CCS(=O)(=O)c1ccc(OC)c(Nc2ncc(-c3cccc(F)c3)o2)c1 [GW621970X]', 'Percent Control', '95%'),
  ('NS(=O)(=O)c1ccc(N/N=C2\C(=O)Nc3ccc(Cl)cc32)cc1 [GW280670X]', 'Percent Control', '95%'),
  ('Cc1cc(O)cc(C)c1/C=C/c1cncc(C(N)=O)c1 [GW435821X]', 'Percent Control', '94%'),
  ('CN(C)c1cc2c(Nc3ccc4c(cnn4Cc4ccccc4)c3)ncnc2cn1 [GW282974X]', 'Percent Control', '84%');

* * *

# Tested on: MAST1
# stated.conditions: Compound Concentration (nM):1000
reported.property: Percent Control (%)

INSERT INTO measurements (compound, assay_result) VALUES
  ('COc1cccc(-c2c[nH]c3c(N/N=C/c4ccncc4)ncnc23)c1 [GW814408X]', 100),
  ('COc1cc2ncn(-c3cc(O[C@H](C)c4ccccc4Cl)c(C(N)=O)s3)c2cc1OC [GSK237701A]', 96),
  ('COc1ccc2cc(-c3c(-c4ccncc4)nc(-c4ccc(S(C)(=O)=O)cc4C)n3C)ccc2c1 [SB-633825]', 68),
  ('CCS(=O)(=O)c1ccc(OC)c(Nc2ncc(-c3cccc(OC)c3)o2)c1 [GW580509X]', 93),
  ('NS(=O)(=O)c1ccc(N/N=C2\C(=O)Nc3ccc(-c4cnco4)cc32)cc1 [GW276655]', 75),
  ('CC(C)COC(=O)c1ccc2c(c1)/C(=C/Nc1ccc(S(N)(=O)=O)cc1)C(=O)N2 [GW416981X]', 100),
  ('COc1cc(/C=N/Nc2ncnc3[nH]ncc23)ccc1O [GW578748X]', 78);
